All figures here come from ChEMBL document CHEMBL2218924.

Reported residual activity values for a set of compounds
# test system: cAMP-dependent protein kinase catalytic subunit alpha (Homo sapiens)
# measurement setup: at 10 µM
Write it as a number; the unit % goes unstated.

{"compound structure": "CC#CC(=O)Nc1cc2c(Nc3ccc(F)c(Cl)c3)ncnc2cn1", "test system": "cAMP-dependent protein kinase catalytic subunit alpha (Homo sapiens)", "result unit": "%", "residual activity": 77}

Lab note: next compound to report on.
Please look up its residual activity: `O=C1NC(=O)/C(=C/c2ccc3c(c2)OC(F)(F)O3)S1`
74

----------
Each entry below lists one item and its recorded residual activity value.
# test system: Dual specificity protein kinase CLK2 (Homo sapiens) (UniProt P49760)
# Sequence (P49760 whole entry, looked up): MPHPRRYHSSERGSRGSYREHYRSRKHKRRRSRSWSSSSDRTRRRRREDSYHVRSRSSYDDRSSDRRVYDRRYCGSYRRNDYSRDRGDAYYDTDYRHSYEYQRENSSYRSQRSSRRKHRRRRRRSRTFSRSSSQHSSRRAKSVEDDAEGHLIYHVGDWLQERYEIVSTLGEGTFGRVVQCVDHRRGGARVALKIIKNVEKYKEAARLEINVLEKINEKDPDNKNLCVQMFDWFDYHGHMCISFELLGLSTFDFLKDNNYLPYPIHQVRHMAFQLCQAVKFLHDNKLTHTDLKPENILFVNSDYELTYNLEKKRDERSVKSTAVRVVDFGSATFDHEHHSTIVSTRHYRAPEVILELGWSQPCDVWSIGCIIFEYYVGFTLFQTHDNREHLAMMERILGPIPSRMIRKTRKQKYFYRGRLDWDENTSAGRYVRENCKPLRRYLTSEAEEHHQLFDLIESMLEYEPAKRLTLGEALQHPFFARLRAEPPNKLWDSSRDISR
# measurement setup: at 10 µM
The reply should be a number in %, with the unit left off.

{"compound structure": "O=c1cc(-c2cccc3c2Sc2ccccc2S3)oc(N2CCOCC2)c1", "val": 92}
{"compound structure": "COc1ccc(C(=O)Nc2sc3c(c2C(N)=O)CCCC3)cc1OC", "val": 82}
{"compound structure": "Cc1nc(-c2ccccc2)c(-c2ccncc2)o1", "val": 96}

As a next step, examine the compound that follows.
Which residual activity reading was recorded for the compound `COc1ccc(OC)c2c(=S)c3ccccc3[nH]c12` ?
74

----------
# test system: Protein kinase C eta type (Homo sapiens) (UniProt P24723)
# Sequence (P24723 whole entry): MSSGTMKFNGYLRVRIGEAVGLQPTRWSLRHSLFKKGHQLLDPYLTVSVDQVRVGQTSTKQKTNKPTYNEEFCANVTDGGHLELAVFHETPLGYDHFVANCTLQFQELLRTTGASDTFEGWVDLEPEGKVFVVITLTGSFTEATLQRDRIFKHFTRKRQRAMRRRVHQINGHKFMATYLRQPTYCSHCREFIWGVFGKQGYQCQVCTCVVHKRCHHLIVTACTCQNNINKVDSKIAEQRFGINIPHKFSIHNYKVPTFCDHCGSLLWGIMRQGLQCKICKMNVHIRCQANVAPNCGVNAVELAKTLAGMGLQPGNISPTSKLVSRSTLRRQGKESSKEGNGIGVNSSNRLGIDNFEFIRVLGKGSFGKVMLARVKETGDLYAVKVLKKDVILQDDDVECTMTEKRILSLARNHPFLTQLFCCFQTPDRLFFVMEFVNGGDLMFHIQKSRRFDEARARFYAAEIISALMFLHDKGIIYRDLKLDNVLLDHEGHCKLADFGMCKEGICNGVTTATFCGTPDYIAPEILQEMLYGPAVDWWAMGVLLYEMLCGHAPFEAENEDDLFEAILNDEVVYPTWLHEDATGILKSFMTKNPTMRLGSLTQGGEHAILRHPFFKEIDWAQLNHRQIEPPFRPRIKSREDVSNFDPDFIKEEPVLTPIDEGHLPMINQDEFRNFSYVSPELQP
# measurement setup: at 10 µM
Measured residual activity, listed per entry for reference.
Please respond with the number in % and leave the unit unwritten.

{"compound structure": "O=C1Nc2ccc(Br)cc2/C1=C\\c1cc2c([nH]1)CCCC2", "result unit": "%", "residual activity": 73}
{"compound structure": "COc1cccc(-c2cc(=O)c3ccccc3o2)c1N", "result unit": "%", "residual activity": 94}

Then there is this compound:
Using the record for `c1ccc(-c2n[nH]cc2-c2ccnc3ccccc23)nc1` , report its residual activity.
77

----------
# test system: Serine/threonine-protein kinase D1 (Homo sapiens)
# measurement setup: at 1 µM
recorded metric: residual activity (%)
Value expressed in %; do not type the unit.

{"compound structure": "N#C/C(=C(\\N)Sc1ccc(N)cc1)c1ccccc1C(F)(F)F", "test system": "Serine/threonine-protein kinase D1 (Homo sapiens)", "recorded metric": "residual activity", "val": 82}

Param readout = residual activity; param system = Serine/threonine-protein kinase D1 (Homo sapiens); param query = `CO[C@H]1[C@@H](OC)C[C@H](C)[C@@H](OC)C2=CC(=O)C=C(NC(=O)/C(C)=C/C=C/[C@H](OC)[C@@H](OC(N)=O)/C(C)=C/[C@@H]1C)C2=O` ; response: value
119

Recorded residual activity for `Cn1cc(/C=C2\C(=O)Nc3ccc(S(N)(=O)=O)cc32)c2ccccc21` with Serine/threonine-protein kinase D1 (Homo sapiens), please?
84

----------
In this section, each of the molecules is paired with its reported residual activity.
# test system: Tyrosine-protein kinase receptor UFO (Homo sapiens)
# measurement setup: at 10 µM

Reference set, count: 5
{"compound structure": "CC(C)n1cnc2c(NCc3ccccc3)nc(NCCCO)nc21", "val": "75%"}
{"compound structure": "COc1cc2ncnc(Nc3ccc(Oc4ccccc4)cc3)c2cc1OC", "val": "25%"}
{"compound structure": "Oc1n[nH]c2nnc(-c3c(-c4ccccc4)nn4ccccc34)cc12", "val": "104%"}
{"compound structure": "Oc1ccc(Nc2nc(-c3ccc(Cl)cc3)cs2)cc1", "val": "80%"}
{"compound structure": "Ic1cccc(CSc2nnc(-c3ccncc3)o2)c1", "val": "60%"}

Which value of residual activity has been reported for `O=c1c2ccccc2[nH]c(=S)n1CCN1CCC(=C(c2ccc(F)cc2)c2ccc(F)cc2)CC1` in the records?
89%

Any idea what its residual activity is? The molecule is `N#CC(C#N)=C(N)/C(C#N)=C/c1ccc(O)cc1`
87%

----------
# test system: Casein kinase II subunit alpha' (Homo sapiens) (UniProt P19784)
# Sequence (P19784 whole entry, looked up): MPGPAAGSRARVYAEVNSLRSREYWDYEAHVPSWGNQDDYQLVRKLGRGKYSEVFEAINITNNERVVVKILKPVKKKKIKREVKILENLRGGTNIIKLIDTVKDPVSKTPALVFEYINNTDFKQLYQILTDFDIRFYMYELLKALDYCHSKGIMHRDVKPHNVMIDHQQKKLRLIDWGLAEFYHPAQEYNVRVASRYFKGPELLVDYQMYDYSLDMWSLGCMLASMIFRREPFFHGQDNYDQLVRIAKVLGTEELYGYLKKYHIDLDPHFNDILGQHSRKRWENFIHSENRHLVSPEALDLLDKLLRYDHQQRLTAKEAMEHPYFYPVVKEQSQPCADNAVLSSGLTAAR
# measurement setup: at 10 µM
Listed molecules paired with reported residual activity
The response must be a number in % with no trailing unit.

{"compound structure": "COc1ccc(C(=O)Nc2sc3c(c2C(N)=O)CCCC3)cc1OC", "result unit": "%", "residual activity": 91}
{"compound structure": "Cc1ccc(S(=O)(=O)/C=C/C#N)cc1", "result unit": "%", "residual activity": 103}
{"compound structure": "COc1cc2ncnc(Nc3ccc(NC(=O)c4ccccc4)cc3)c2cc1OC", "result unit": "%", "residual activity": 107}

Record request: residual activity value, item `CC(C)n1cnc2/c(=N/c3cccc(Cl)c3)nc(NCCO)[nH]c21`
103

Record request: residual activity value, item `O=C1c2ccccc2-[n+]2ccc3c([nH]c4ccccc43)c21`
85

Returns the measured residual activity for the input molecule. Input: `COc1cc2ncnc(Nc3ccc(O)c(Br)c3)c2cc1OC`
38

I would be grateful if you could share the reported residual activity for `O=c1c2ccccc2[nH]c(=S)n1CCN1CCC(=C(c2ccc(F)cc2)c2ccc(F)cc2)CC1` .
93

Recorded residual activity of `Cc1cncc2cccc(S(=O)(=O)N3CCCN(C(=O)CN)C[C@H]3C)c12` , please.
98

Quick check: residual activity of `CO[C@H]1[C@@H](OC)C[C@H](C)[C@@H](OC)C2=CC(=O)C=C(NC(=O)/C(C)=C/C=C/[C@H](OC)[C@@H](OC(N)=O)/C(C)=C/[C@@H]1C)C2=O` ?
99

Consider the molecule `CC[n+]1c(/C=C/N(C)c2ccccc2)n(-c2ccccc2)c2ccc(-c3nc4ccccc4s3)cc21` and give its measured residual activity.
90

Look up residual activity: `CCN(CC)C(=O)c1ccc(Nc2nc(OCC3CCCCC3)c3nc[nH]c3n2)cc1`
75

Sample `CC(=O)O/N=C1\C(=C2\C(=O)Nc3cc(Br)ccc32)Nc2ccccc21` — what was its residual activity?
89

----------
Measured residual activity accompanies every entry in the list below.
# test system: Serine/threonine-protein kinase Sgk2 (Homo sapiens)
# measurement setup: at 10 µM
API: value field is a number in %; no unit string.

Example results:
{"compound structure": "O=C(Nc1cccc(Nc2cc(Nc3cccc(C(F)(F)F)c3)ncn2)c1)C1CC1", "residual activity / %": 69}
{"compound structure": "Cn1cc(/C=C2\\C(=O)Nc3ccc(S(N)(=O)=O)cc32)c2ccccc21", "residual activity / %": 61}
{"compound structure": "Cc1ccc(NC2=CC(=O)c3sc(C)nc3C2=O)cc1", "residual activity / %": 82}
{"compound structure": "CCOc1cc2ncnc(Nc3cccc(Br)c3)c2cc1OCC", "residual activity / %": 60}
{"compound structure": "Cc1nc2cc3nc(-c4cccs4)cnc3cc2n1C", "residual activity / %": 64}

Entry `Cc1ccc(S(=O)(=O)/C=C/C#N)cc1` has what residual activity?
101

Find the recorded residual activity belonging to `Oc1c2ccccc2c2c3c(cccc13)N=N2` and report it.
33

----------
# test system: Serine/threonine-protein kinase tousled-like 2 (Homo sapiens)
# measurement setup: at 1 µM
recorded metric: residual activity (%)
The figure you give is taken to be in %; do not add the unit.

{"compound structure": "O=c1c2ccccc2[nH]c(=S)n1CCN1CCC(=C(c2ccc(F)cc2)c2ccc(F)cc2)CC1", "residual activity (%)": 104}
{"compound structure": "COc1cc2ncnc(Nc3ccc(O)c(Br)c3)c2cc1OC", "residual activity (%)": 86}
{"compound structure": "Cc1nc(-c2ccccc2)c(-c2ccncc2)o1", "residual activity (%)": 106}
{"compound structure": "CC#CC(=O)Nc1cc2c(Nc3ccc(F)c(Cl)c3)ncnc2cn1", "residual activity (%)": 102}
{"compound structure": "O=C1NC(=O)c2c1c1c3ccccc3[nH]c1c1[nH]c3cc(Br)ccc3c21", "residual activity (%)": 85}
{"compound structure": "CN(C)c1ccc(/C=C2\\C(=O)Nc3ccccc32)cc1", "residual activity (%)": 98}
{"compound structure": "CC(=O)c1ccc(N2CCOCC2)cc1O", "residual activity (%)": 103}

For the next question, use this compound.
I'd like to know its residual activity. The compound in question is `Nc1ccc2ncnc(NCCc3ccc(Oc4ccccc4)cc3)c2c1`
111

----------
# test system: Tyrosine-protein kinase Yes (Homo sapiens) (UniProt P07947)
# Sequence (P07947 2-543 limits assumed): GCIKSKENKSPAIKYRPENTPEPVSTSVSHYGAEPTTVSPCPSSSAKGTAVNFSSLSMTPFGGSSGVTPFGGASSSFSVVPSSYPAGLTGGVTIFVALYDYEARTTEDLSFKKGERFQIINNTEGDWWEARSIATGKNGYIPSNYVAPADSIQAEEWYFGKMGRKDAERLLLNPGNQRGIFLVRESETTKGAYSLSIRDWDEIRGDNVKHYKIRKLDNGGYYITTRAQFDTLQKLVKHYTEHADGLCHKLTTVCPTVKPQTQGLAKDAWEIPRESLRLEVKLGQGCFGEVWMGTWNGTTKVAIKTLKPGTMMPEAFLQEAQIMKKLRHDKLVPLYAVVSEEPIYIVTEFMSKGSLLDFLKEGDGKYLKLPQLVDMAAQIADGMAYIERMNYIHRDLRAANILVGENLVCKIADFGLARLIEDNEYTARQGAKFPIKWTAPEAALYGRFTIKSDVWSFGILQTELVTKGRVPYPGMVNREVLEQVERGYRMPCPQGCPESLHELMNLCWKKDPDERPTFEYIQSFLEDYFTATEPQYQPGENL
# measurement setup: at 10 µM
// label = Met if residual activity is not less than 90%, otherwise Not met

{"compound structure": "O=C(Nc1cccc(Nc2nccc(Nc3cccc(C(F)(F)F)c3)n2)c1)C1CC1", "label": "Not met"}

Entry `O=C1Nc2ccc(Br)cc2/C1=C\c1cc2c([nH]1)CCCC2` : is its residual activity no less than 90%?
Not met

----------
# test system: Death-associated protein kinase 2 (Homo sapiens) (UniProt Q9UIK4)
# Sequence (Q9UIK4 whole entry, looked up): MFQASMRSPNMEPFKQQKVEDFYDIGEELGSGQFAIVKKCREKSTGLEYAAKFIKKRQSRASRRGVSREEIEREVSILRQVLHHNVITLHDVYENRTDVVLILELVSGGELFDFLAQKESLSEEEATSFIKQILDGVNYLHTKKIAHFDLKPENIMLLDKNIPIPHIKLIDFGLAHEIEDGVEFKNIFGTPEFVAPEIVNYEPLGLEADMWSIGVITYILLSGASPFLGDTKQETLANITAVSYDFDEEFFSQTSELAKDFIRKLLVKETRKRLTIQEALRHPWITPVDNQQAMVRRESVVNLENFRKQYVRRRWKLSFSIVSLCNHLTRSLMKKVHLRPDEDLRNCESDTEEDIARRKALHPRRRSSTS
# measurement setup: at 10 µM
recorded metric: residual activity (%)
I only need the number, in %, no unit after it.

Any idea what residual activity was measured for `COc1ccc(S(=O)(=O)N(CCO)c2ccccc2CN(C)C/C=C/c2ccc(Cl)cc2)cc1` ?
87
